Some binders, each annotated with its measured Kd.
Target: T1, Fc tagged mouse TNFR1 (Sino Biological) (mouse, UniProt P25118 22-212, limits assumed)
T1 construct: Bought reagent; also called mTNFR1; mTNFR1-Fc; not shown: Fc tag of the bought protein
T1 sequence (looked up): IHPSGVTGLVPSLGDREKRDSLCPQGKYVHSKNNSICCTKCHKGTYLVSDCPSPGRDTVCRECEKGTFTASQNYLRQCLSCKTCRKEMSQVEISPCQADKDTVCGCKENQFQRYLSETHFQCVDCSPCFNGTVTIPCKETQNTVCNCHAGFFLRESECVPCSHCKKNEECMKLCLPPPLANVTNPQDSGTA
Assay: SPR, Biacore T200 multi cycle kinetics, receptor-Fc captured on Protein A chip, TNF 1.25-40 nM, 1:1 model
Don't forget the unit after the number, please.

binder: TNF mutein G4 (ligand, Human TNF mutein, SSTYNP at positions 84-89; also called mutTNF G4; mutTNF; not shown: C-terminal FLAG tag and His6 tag from vector pANT65) VRSSSRTPSDKPVAHVVANPQAEGQLQWLNRRANALLANGVELRDNQLVVPSEGLYLIYSQVLFKGQGCPSTHVLLTHTISRISSTYNPKVNLLSAIKSPCQRETPEGAEAKPWYEPIYLGGVFQLEKGDRLSAEINRPDYLDFAESGQVYFGIIAL
assay_metric: Kd
observed_measurement: 0.14 nM
//
binder: TNF mutein B2 (ligand, Human TNF mutein, TASYSG at positions 84-89; not shown: C-terminal FLAG tag and His6 tag from vector pANT65) VRSSSRTPSDKPVAHVVANPQAEGQLQWLNRRANALLANGVELRDNQLVVPSEGLYLIYSQVLFKGQGCPSTHVLLTHTISRITASYSGKVNLLSAIKSPCQRETPEGAEAKPWYEPIYLGGVFQLEKGDRLSAEINRPDYLDFAESGQVYFGIIAL
assay_metric: Kd
observed_measurement: 0.177 nM

What does the record list as Kd for TNF mutein B6 (ligand, Human TNF mutein, TGTYSY at positions 84-89; not shown: C-terminal FLAG tag and His6 tag from vector pANT65) VRSSSRTPSDKPVAHVVANPQAEGQLQWLNRRANALLANGVELRDNQLVVPSEGLYLIYSQVLFKGQGCPSTHVLLTHTISRITGTYSYKVNLLSAIKSPCQRETPEGAEAKPWYEPIYLGGVFQLEKGDRLSAEINRPDYLDFAESGQVYFGIIAL ? 0.59 nM

Continue with TNF mutein B4 (ligand, Human TNF mutein, SESHDG at positions 84-89; not shown: C-terminal FLAG tag and His6 tag from vector pANT65) VRSSSHTPSDKPVAHVVANPQAEGQLQWLNRRANALLANGVELRDNQLVVPSEGLYLIYSQVLFKGQGCPSTHVLLTHTISRISESHDGKVNLLSAIKSPCQRETPEGAEAKPWYEPIYLGGVFQLEKGDRLSAEINRPDYLDFAESGQVYFGIIAL 0.153 nM

Continue with TNF mutein B5 (ligand, Human TNF mutein, TGTYVD at positions 84-89; not shown: C-terminal FLAG tag and His6 tag from vector pANT65) VHSSSRTPSDKPVAHVVANPQAEGQLQWLNRRANALLANGVELRDNQLVVPSEGLYLIYSQVLFKGQGCPSTHVLLTHTISRITGTYVDKVNLLSAIKSPCQRETPEGAEAKPWYEPIYLGGVFQLEKGDRLSAEINRPDYLDFAESGQVYFGIIAL 0.289 nM

Continue with TNF mutein F7 (ligand, Human TNF mutein, SETVVG at positions 84-89; not shown: C-terminal FLAG tag and His6 tag from vector pANT65) VHSSSRTPSDKPVAHVVANPQAEGQLQWLNRRANALLANGVELRDNQLVVPSEGLYLIYSQVLFKGQGCPSTHVLLTHTISRISETVVGKVNLLSAIKSPCQRETPEGAEAKPWYEPIYLGGVFQLEKGDRLSVEINRPDYLDFAESGQVYFGIIAL 0.208 nM
